IC50, whole blood mm2 by entry:
- tgt: T1, human IL-33 (mm2) (human, UniProt O95760 112-270)
- T1 chain: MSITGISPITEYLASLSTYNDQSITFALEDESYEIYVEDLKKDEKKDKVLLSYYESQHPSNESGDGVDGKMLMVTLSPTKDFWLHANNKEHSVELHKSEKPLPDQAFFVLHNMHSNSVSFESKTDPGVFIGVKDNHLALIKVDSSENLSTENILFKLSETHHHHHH
- experiment notes: cell-based or functional assay

binder	IC50, whole blood mm2 [pM]
IL33-156 (antibody, human IgG1, kappa, V domains shown) VH: EVQLVESGGGLVQPGGSLRLSCAASGFTFSSYWMYWVRQAPGKGLEWVAAITPNGGEDYYPESVKGRFTISRDNAKNSLYLQMNSLRAEDTAVYYCARGHYYYTSYSLGYWGQGTLVTVSS VL: DIQMTQSPSSLSASVGDRVTITCKASQNINKHLDWYQQKPGKAPKLLIYFTNNLQTGVPSRFSGSGSGTDFTLTISSLQPEDFATYYCFQYNQGWTFGGGTKVEIKR	4
IL33-170 (antibody, human IgG1, kappa, V domains shown) VH: EVQLVESGGGLVQPGGSLRLSCAASGFTFSSYWMYWVRQAPGKGLEWVAAITPNGGEDYYPESVKGRFTISRDNAKNSLYLQMNSLRAEDTAVYYCARGHYYYTSYSLGYWGQGTLVTVSS VL: DIQMTQSPSSLSASVGDRVTITCKASQNINKHLDWYQQKPGKAPKLLIYFTNNLQTGVPSRFSGSGSGTDFTLTISSLQPEDFATYYCFQYNNGWTFGGGTKVEIKR	5
IL33-153 (antibody, human IgG1, kappa, V domains shown) VH: EVQLVESGGGLVQPGGSLRLSCAASGFTFSSYWMYWVRQAPGKGLEWVASITPNAGEDYYPDSVKGRFTISRDNAKNSLYLQMNSLRAEDTAVYYCARGHYYYTSYSLGYWGQGTLVTVSS VL: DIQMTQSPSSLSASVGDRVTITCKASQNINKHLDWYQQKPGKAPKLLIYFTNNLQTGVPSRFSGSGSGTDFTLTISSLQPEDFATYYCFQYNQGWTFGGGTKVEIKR	14

The measured values listed here are drawn from patent US20180037644A1.
